target: Sentrin-specific protease 7 (Homo sapiens); assay type: functional;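 also: Luminescence-based dose-response confirmation of ultra-high-throughput screening hits, measuring inhibition of SENP7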
Sequence (Q9BQF6 whole entry): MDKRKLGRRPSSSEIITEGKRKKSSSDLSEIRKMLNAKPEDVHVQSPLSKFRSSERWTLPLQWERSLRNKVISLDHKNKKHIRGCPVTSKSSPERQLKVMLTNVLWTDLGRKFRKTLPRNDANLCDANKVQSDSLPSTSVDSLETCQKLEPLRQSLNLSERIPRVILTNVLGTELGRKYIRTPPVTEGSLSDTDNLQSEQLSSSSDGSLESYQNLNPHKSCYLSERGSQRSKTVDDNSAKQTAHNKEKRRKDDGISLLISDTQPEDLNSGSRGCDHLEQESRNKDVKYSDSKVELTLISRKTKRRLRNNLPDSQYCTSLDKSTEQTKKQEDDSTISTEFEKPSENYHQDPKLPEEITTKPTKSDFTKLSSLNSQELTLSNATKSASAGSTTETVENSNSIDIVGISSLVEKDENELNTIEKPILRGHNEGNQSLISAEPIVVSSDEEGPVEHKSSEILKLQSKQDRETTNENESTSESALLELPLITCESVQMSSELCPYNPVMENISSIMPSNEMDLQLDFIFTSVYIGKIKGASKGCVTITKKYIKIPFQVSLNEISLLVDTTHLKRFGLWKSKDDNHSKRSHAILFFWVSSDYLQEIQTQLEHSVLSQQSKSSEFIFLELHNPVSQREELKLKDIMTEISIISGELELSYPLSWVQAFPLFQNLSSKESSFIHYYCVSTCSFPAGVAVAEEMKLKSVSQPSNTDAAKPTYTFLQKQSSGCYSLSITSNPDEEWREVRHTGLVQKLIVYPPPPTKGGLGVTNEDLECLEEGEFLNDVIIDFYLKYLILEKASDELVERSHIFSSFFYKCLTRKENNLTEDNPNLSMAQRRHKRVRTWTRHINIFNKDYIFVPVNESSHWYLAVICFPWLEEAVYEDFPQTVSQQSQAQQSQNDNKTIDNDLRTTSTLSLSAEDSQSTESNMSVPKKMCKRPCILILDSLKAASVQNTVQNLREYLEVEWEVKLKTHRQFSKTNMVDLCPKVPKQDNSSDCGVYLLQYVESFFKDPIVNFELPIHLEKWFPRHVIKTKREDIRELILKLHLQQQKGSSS
Active and inactive are the calls of the source.
Answer each item with its documented IC50.

Example compounds with recorded IC50:
1. O=C(Nc1nc2ccccc2[nH]1)Nc1ccccc1F    7.28 µM (active)
2. COc1cccc(NC(=O)c2csc3c2CCCC3)c1    5.17 µM (active)
3. Cc1ccc(O)c(NC(=O)c2cc(-c3ccco3)on2)c1    8.57 µM (active)

Turning now to a further record.
Measured IC50 (Sentrin-specific protease 7 (Homo sapiens)), entry Cc1ccc(OCc2nc(-c3ccccc3)no2)c(C)c1 : 7.65 µM (active)

---

Target: UniProt Q96LD8
Sequence (Q96LD8 whole entry): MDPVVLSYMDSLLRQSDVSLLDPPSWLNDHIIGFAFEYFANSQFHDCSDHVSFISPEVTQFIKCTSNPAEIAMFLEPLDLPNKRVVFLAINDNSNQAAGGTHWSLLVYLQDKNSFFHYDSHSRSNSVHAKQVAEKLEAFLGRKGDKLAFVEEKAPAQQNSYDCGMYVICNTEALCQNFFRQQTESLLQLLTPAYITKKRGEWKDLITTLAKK
Type: functional
Calls of active or inactive are those of the source.
Please state which outcome applies, choosing from active, inactive

Example results:
1) O=Nc1c(-c2c(O)[nH]c3cc(Br)ccc23)[nH]c2ccccc12    inactive
2) CCOC(=O)NNc1ccc2nonc2c1[N+](=O)[O-]    active

Next item in the queue.
Field: outcome | Entry: COc1cccc(NC(=O)c2csc3c2CCCC3)c1
active
